Can you tell me pIC50 for the items I'm about to list?
# System: HCT^wt cells
# EXPERIMENT: MTT cytotoxicity assay, HCT^wt (p53 pos)
# Type: cell-based
# EXPERIMENTAL CONTEXT: 48 h
# log scale: pIC50 equals minus log10 of the concentration in mol/L

The compound CN1C[C@H](c2ccccn2)[C@]2(NC(=S)N(c3ccccc3)C2=O)[C@]12C(=O)Nc1ccc(Br)cc12 (racemic) on HCT^wt cells: pIC50 was 5.25

The compound CN1C[C@H](c2ccncc2)[C@]2(NC(=S)N(c3ccccc3)C2=O)[C@]12C(=O)Nc1ccc(Cl)cc12 (racemic) on HCT^wt cells: pIC50 was 4.30

The compound CCc1ccc([C@H]2CN(C)[C@@]3(C(=O)Nc4ccccc43)[C@@]23NC(=S)N(c2ccc(F)c(Cl)c2)C3=O)cc1 (racemic) on HCT^wt cells: pIC50 was 5.20

The compound CC(c1ccccc1)N1C(=O)C2(NC1=S)C(c1cccc(Cl)c1)CN(C)C21C(=O)Nc2ccc(Br)cc21 (mixture of isomers) on HCT^wt cells: pIC50 was 5.10
